Source of measurements: ChEMBL document CHEMBL1134620

target: Monoamine oxidase (Mesocricetus auratus)
recorded_metric: IC50

| compound | IC50 |
| --- | --- |
| CCCCCCC(Oc1ccc2c(=O)c(-c3ccc(O)cc3)coc2c1)C(=O)OCC (centres undefined) | >> 9 uM |
| O=c1c(-c2ccc(O)cc2)coc2cc(OCCCCCCO)ccc12 | > 9 µM |
| O=C(O)COc1ccc2c(=O)c(-c3ccc(O)cc3)coc2c1 | >> 9 uM |

# input for lookup
Asked: IC50 for O=c1c(-c2ccc(O)cc2)coc2cc(OCCCCCCCCCO)ccc12 ?
Given back: > 9 µM
